# Tested on: A549 NSCLC
# protocol.text: NCI tumour cell line growth inhibition, 48 h
Each entry below carries its reported TGI.
measure.name: TGI

[[record]]
compound = "O=C(NNC(=O)c1ccccc1O)c1ccc(O)cc1"
system = "A549 NSCLC"
assay_result = "> 100 µM"

[[record]]
compound = "NCCSCCc1ccccc1"
system = "A549 NSCLC"
assay_result = "> 100 µM"

[[record]]
compound = "O=C1C2Nc3ccccc3SC2C(=O)N1c1ccccc1C(F)(F)F (stereo not drawn)"
system = "A549 NSCLC"
assay_result = "> 100 µM"

[[record]]
compound = "CCc1n[nH]c(=O)n1CCO"
system = "A549 NSCLC"
assay_result = "> 100 µM"

[[record]]
compound = "COC1OC2COC(c3ccccc3)OC2C(O)C1Br (stereo not drawn)"
system = "A549 NSCLC"
assay_result = "> 100 µM"

[[record]]
compound = "Cc1cccc(C(C)(C)C)c1NC(=O)CC1Sc2ccccc2NC1=O (stereo not drawn)"
system = "A549 NSCLC"
assay_result = "> 100 µM"

[[record]]
compound = "O=c1[nH]n(Cc2ccccc2Cl)c2ccccc12"
system = "A549 NSCLC"
assay_result = "> 100 µM"

[[record]]
compound = "O=C1OC(CN2CCOCC2)CN1/N=C/c1ccc([N+](=O)[O-])o1 (stereo not drawn)"
system = "A549 NSCLC"
assay_result = "> 100 µM"

[[record]]
compound = "Oc1ccc(Cl)cc1CNc1nc2ccccc2[nH]1"
system = "A549 NSCLC"
assay_result = "30.2 µM"

[[record]]
compound = "Cn1c(=O)c(Oc2ccc(F)cc2F)cc2cnc(NCCS(C)(=O)=O)nc21"
system = "A549 NSCLC"
assay_result = "> 25 µM"

[[record]]
compound = "CC(C)CCN[C@@H]1CCc2cc(O)c(N3CC(=O)NS3(=O)=O)c(F)c2C1"
system = "A549 NSCLC"
assay_result = "> 100 µM"

[[record]]
compound = "Cc1cccc2c(N)c3ccccc3nc12"
system = "A549 NSCLC"
assay_result = "4.02 µM"

[[record]]
compound = "O=c1[nH]c2c(c(=O)[nH]1)SSC2"
system = "A549 NSCLC"
assay_result = "> 63.5 µM"


---

# Tested on: HCT-15 colon
Labels: Y = active, N = inactive

[[record]]
compound = "CC(=O)Oc1ccc(C(c2ccc(OC(C)=O)cc2)c2ccccn2)cc1"
label = "N"

[[record]]
compound = "CCN(CC)CCOc1ccc(C(=O)/C=C\\c2ccc(Cl)cc2Cl)cc1"
label = "N"

[[record]]
compound = "COc1cc2c3c(n(CCCN=[N+]=[N-])c(=O)c2cc1OC)-c1ccc(N(C)C)cc1C3=O"
label = "N"

[[record]]
compound = "CN(/N=N/c1nc(OCc2ccccc2)c2[nH]cnc2n1)C(=O)Oc1ccc([N+](=O)[O-])cc1"
label = "N"

[[record]]
compound = "COc1ccc(OC)c(Nc2nc(-c3c(C)nc4sccn34)cs2)c1"
label = "N"

[[record]]
compound = "[Cl][Cd][Cl]"
label = "N"

[[record]]
compound = "CC1(C)OC(=O)C=C([O-])O1.CC1(C)OC(=O)C=C([O-])O1.CC[O-].CC[O-].[Ti+4]"
label = "N"

[[record]]
compound = "COc1ccc(C2=CC(c3ccc(OC)c(OC)c3)c3c(c4ccccc4oc3=O)O2)cc1OC (centres undefined)"
label = "N"

[[record]]
compound = "CC(C)CCN[C@@H]1CCc2cc(O)c(N3CC(=O)NS3(=O)=O)c(F)c2C1"
label = "N"

[[record]]
compound = "CC(C)COC(=O)c1ccc2[nH]c(O)c(C=Nc3ccc(S(N)(=O)=O)cc3)c2c1"
label = "N"

[[record]]
compound = "COc1ccc2nc(NC(=O)c3cccnc3Nc3cc(OC)c(OC)c(OC)c3)sc2c1"
label = "N"

[[record]]
compound = "CCn1c2ccccc2c2cc(C(O)c3cccc4ncccc34)ccc21 (centres undefined)"
label = "Y"

[[record]]
compound = "Oc1ccc(Cl)cc1CNc1nc2ccccc2[nH]1"
label = "N"

[[record]]
compound = "COc1cc(/C=C/C(=O)c2cccnc2Nc2ccc(F)cc2)cc(OC)c1OC"
label = "N"


Values from PubChem BioAssay (NCI)
